Molecular target: T1, human IL12Rβ2, cell-expressed (human, UniProt Q99665 24-862)
T1 sequence (looked up): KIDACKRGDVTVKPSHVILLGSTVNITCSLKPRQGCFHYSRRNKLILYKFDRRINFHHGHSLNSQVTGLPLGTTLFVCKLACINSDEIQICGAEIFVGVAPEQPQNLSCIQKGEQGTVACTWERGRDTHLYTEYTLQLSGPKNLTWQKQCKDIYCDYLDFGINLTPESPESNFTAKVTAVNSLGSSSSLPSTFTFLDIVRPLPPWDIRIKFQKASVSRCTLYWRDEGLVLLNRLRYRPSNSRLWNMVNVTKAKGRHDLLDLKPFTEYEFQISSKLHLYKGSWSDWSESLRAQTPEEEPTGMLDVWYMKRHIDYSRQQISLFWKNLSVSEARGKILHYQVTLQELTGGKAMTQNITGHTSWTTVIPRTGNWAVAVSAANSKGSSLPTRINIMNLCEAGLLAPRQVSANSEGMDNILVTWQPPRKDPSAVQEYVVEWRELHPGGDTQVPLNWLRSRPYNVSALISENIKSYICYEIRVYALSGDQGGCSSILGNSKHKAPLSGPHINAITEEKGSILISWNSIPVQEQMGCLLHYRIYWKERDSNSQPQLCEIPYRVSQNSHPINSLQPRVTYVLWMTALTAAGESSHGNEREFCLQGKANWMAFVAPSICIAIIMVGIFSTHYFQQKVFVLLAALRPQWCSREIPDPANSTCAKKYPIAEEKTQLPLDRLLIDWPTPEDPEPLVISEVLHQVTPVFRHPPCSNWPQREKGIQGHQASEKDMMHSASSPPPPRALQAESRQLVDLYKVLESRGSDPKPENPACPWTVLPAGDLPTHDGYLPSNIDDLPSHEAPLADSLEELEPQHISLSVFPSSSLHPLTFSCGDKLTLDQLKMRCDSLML
Assay: cell-based or functional assay
Reported fold ctrl, IFNγ release, T cells D839 values follow for various binders
Write down the numeric answer in fold and omit the unit.

Name the recorded fold ctrl, IFNγ release, T cells D839 for IL12Rb2#1-35GS-CD4#8 (bispecific antibody, defined by its make-up (Nb1-Nb2)) EVQLVESGGRLVQAGDSLRLSCAASGRTFISYRMGWFRQAPGKEREFVAALRWSSSNIDYTYYADSVKGRFSISGDYAKNTVYLQMNSLKAEDTAVYYCAASTRWGVMESDTEYTSWGQGTLVTVSSGGGGSGGGGSGGGGSGGGGSGGGGSGGGGSGGGGSEVQLVESGGGSVQPGGSLTLSCGTSGRTFNVMGWFRQAPGKEREFVAAVRWSSTGIYYTQYADSVKSRFTISRDNAKNTVYLEMNSLKPEDTAVYYCAADTYNSNPARWDGYDFRGQGTLVTVSS .
400

Name the recorded fold ctrl, IFNγ release, T cells D839 for CD4#8-35GS-IL12Rb2#1 (bispecific antibody, defined by its make-up) EVQLVESGGGSVQPGGSLTLSCGTSGRTFNVMGWFRQAPGKEREFVAAVRWSSTGIYYTQYADSVKSRFTISRDNAKNTVYLEMNSLKPEDTAVYYCAADTYNSNPARWDGYDFRGQGTLVTVSSGGGGSGGGGSGGGGSGGGGSGGGGSGGGGSGGGGSEVQLVESGGRLVQAGDSLRLSCAASGRTFISYRMGWFRQAPGKEREFVAALRWSSSNIDYTYYADSVKGRFSISGDYAKNTVYLQMNSLKAEDTAVYYCAASTRWGVMESDTEYTSWGQGTLVTVSS .
74

Name the recorded fold ctrl, IFNγ release, T cells D839 for CD4#8-35GS-IL12Rb2#2 (bispecific antibody, defined by its make-up) EVQLVESGGGSVQPGGSLTLSCGTSGRTFNVMGWFRQAPGKEREFVAAVRWSSTGIYYTQYADSVKSRFTISRDNAKNTVYLEMNSLKPEDTAVYYCAADTYNSNPARWDGYDFRGQGTLVTVSSGGGGSGGGGSGGGGSGGGGSGGGGSGGGGSGGGGSEVQLVESGGRLVQAGDSLRLSCAASGRTFTSYRMGWFRQAPGKEREFVSALRWSSGNIDYTYYADSVKGRFSISGDYAKNTVYLQMNSLKAEDTAVYYCAASTRWGVMESDTEYTSWGQGTLVTVSS .
130
